# Tested on: MDA-MB-435
# Measurement Notes: Antiproliferative activity against human MDA-MB-435 cells after 48 hrs
# Format: functional
# Assay Setup: Homo sapiens, MDA-MB-435, 48 h
The molecules listed here are annotated with their LC50.
Number only, in µM; omit the unit.

In [3]: df
Out[3]:
                            chemical_string  observed_measurement
0  CCCCCCCCCCCCCCN[C@H](CO)[C@H](O)c1ccc([N+](=O)[O-])cc1.Cl                  5.75
1        CCCCCCCCCCCCCCN[C@@H](CO)Cc1ccccc1                  5.62

**Q:** GET /values?readout=LC50&item= CCCCCCCCCCCCCCN[C@@H](C)[C@H](O)c1ccccc1
**A:** 5.75

**Q:** GET /values?readout=LC50&item= C[C@H](NC(=O)CCCCCCCCCCCCCCC[n+]1ccccc1)[C@H](O)c1ccccc1.[Br-]
**A:** 25.7

**Q:** GET /values?readout=LC50&item= CCCCCCCCCCCCCCN[C@H](CO)[C@H](O)c1ccccc1
**A:** 5.62

**Q:** GET /values?readout=LC50&item= CCCCCCCCCCCCCCN[C@H](C)[C@@H](O)c1ccccc1.Cl
**A:** 5.62

**Q:** GET /values?readout=LC50&item= C[C@@H](NC(=O)CCCCCCCCCCCCCCC[n+]1ccccc1)[C@@H](O)c1ccccc1.[Br-]
**A:** 5.5
